# assay.procedure: Reduction in surface tension in 0.1 M PBS after 10 mins by Wilhelmy plate method using tensitometer
# Format: physicochemical
assay.metric: EC50 at 10 min (µM)

[[record]]
compound = "CC(C)=CCC[C@](C)(O)[C@H]1CC[C@]2(C)[C@@H]1[C@H](O)C[C@@H]1[C@@]3(C)CC[C@H](O)C(C)(C)[C@@H]3[C@@H](O[C@@H]3O[C@H](CO)[C@@H](O)[C@H](O)[C@H]3O[C@@H]3O[C@@H](C)[C@H](O)[C@@H](O)[C@H]3O)C[C@]12C [GINSENOSIDE RG2]"
value_units = "µM"
reading = 25

[[record]]
compound = "C[C@@H]1CC[C@@]2(OC1)O[C@H]1[C@@H](O)[C@H]3[C@@H]4CC[C@H]5C[C@@H](O[C@@H]6O[C@H](CO)[C@H](O[C@@H]7O[C@H](CO)C(O)[C@H](O[C@@H]8OC[C@@H](O)[C@H](O)[C@H]8O)[C@H]7O[C@@H]7O[C@H](CO)[C@H](O)[C@H](O[C@@H]8O[C@H](CO)[C@@H](O)[C@H](O)[C@H]8O)[C@H]7O)[C@H](O)[C@H]6O)[C@H](O)C[C@]5(C)[C@H]4CC[C@]3(C)[C@H]1[C@@H]2C (stereo partly drawn) [DIGITONIN]"
value_units = "µM"
reading = 8

[[record]]
compound = "C[C@@H]1O[C@@H](O[C@H]2[C@H](O[C@H]3CC[C@@]4(C)[C@@H](CC[C@]5(C)[C@@H]4CC=C4[C@@H]6CC(C)(C)CC[C@]6(C(=O)O[C@@H]6O[C@H](CO[C@@H]7O[C@H](CO)[C@@H](O[C@@H]8O[C@@H](C)[C@H](O)[C@@H](O)[C@H]8O)[C@H](O)[C@H]7O)[C@@H](O)[C@H](O)[C@H]6O)CC[C@]45C)[C@]3(C)CO)OC[C@H](O)[C@@H]2O)[C@H](O)[C@H](O)[C@H]1O [KALOPANAXSAPONIN B]"
value_units = "µM"
reading = 10


----------
# assay.procedure: Critical micellar concentration of the compound in 0.1 M PBS after 10 mins by Wilhelmy plate method using tensitometer
# Assay type: physicochemical
# condition.context: buffer
assay.metric: CMC (µM)

[[record]]
molecule = "CC1(C)[C@@H](O)CC[C@]2(C)[C@H]3C(=O)C=C4[C@@H]5C[C@@](C)(C(=O)O)CC[C@]5(C)CC[C@@]4(C)[C@]3(C)CC[C@@H]12 [ENOXOLONE]"
value_units = "µM"
qualifier_sign = "="
reading = 106

[[record]]
molecule = "CC(C)=CCC[C@](C)(O)[C@H]1CC[C@]2(C)[C@@H]1[C@H](O)C[C@@H]1[C@@]3(C)CC[C@H](O)C(C)(C)[C@@H]3[C@@H](O[C@@H]3O[C@H](CO)[C@@H](O)[C@H](O)[C@H]3O[C@@H]3O[C@@H](C)[C@H](O)[C@@H](O)[C@H]3O)C[C@]12C [GINSENOSIDE RG2]"
value_units = "µM"
qualifier_sign = ">"
reading = 127


----------
# Test system: ECV-304
# assay.procedure: Membranolytic activity in human ECV304 cells assessed as leakage of intracellular lactate dehydrogenase after 2 hrs by spectrophotometry
# Assay type: functional, cell-based
# condition.context: ECV-304, 2 h
pIC50: −log10 of the molar value.
assay.metric: pIC50

[[record]]
compound = "CC[C@H](CC[C@@H](C)[C@H]1CC[C@H]2[C@@H]3CC=C4C[C@@H](O)CC[C@]4(C)[C@H]3CC[C@]12C)C(C)C [BETA-SITOSTEROL]"
reading = 3.33

